From: paper PMC9293652

assayTarget: T1, WWOX WW1-WW2 tandem domain (amino acids 16-91) (human)
T1 chain: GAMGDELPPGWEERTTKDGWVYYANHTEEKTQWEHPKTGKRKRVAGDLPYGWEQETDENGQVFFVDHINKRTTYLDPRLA
testProtocol: NMR titration
Property: KD WW2 (based on V73); scope: individual binders
Unit µM implied. Number only.

- binder: "GTVLPPPPYRHRNGGGGGTVLPPPPYRHRN [ErbB4 double-motif peptide PY3PY3 (polyglycine linker)]"
  KD WW2 (based on V73), µM: 40
- binder: "AFNIPPPIYTSRAGGGGGHSPPPAYTPMS [ErbB4 double-motif peptide PY1PY2S (natural linker replaced by polyglycine)]"
  KD WW2 (based on V73), µM: 70

Report KD WW2 (based on V73), nothing else, for this binder: AFNIPPPIYTSRAGGGGGTVLPPPPYRHRN [ErbB4 double-motif peptide PY1PY3 (polyglycine linker)]
80
